- target-desc: canine TRPM8 (Canis lupus familiaris, UniProt Q1A7N1)
- Sequence (Q1A7N1 1-1104): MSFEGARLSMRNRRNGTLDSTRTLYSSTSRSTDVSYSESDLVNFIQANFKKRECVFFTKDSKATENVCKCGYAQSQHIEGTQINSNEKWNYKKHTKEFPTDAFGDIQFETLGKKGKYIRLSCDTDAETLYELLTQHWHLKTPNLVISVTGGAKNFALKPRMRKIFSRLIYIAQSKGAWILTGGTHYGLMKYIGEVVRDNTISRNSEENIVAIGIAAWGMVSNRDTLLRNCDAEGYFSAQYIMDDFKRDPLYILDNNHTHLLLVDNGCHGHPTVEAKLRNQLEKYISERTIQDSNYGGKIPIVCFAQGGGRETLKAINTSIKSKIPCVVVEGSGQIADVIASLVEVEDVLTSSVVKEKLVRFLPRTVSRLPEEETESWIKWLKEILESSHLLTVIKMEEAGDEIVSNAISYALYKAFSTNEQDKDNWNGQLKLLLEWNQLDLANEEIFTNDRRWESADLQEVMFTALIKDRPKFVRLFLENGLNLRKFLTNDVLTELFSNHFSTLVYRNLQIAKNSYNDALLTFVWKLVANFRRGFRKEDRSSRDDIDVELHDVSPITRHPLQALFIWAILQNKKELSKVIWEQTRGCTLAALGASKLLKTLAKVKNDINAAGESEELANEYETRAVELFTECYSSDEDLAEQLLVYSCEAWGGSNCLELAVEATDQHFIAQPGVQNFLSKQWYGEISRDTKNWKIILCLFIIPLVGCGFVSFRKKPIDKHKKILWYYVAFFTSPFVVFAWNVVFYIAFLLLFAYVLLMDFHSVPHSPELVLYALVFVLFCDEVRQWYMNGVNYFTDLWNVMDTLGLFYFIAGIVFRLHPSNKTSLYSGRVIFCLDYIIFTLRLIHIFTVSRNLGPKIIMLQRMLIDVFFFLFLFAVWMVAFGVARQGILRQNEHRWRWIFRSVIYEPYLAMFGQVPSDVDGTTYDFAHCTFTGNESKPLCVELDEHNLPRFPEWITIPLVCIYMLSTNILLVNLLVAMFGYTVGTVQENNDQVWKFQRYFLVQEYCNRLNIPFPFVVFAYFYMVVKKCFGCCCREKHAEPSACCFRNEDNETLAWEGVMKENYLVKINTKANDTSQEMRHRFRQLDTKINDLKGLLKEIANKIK
- protocol-text: In Vitro Canine TRPM8 Functional Assay (Ca2+ fluorescence, icilin activation)
- Type: cell-based
- cond: compound at 0.2 μM; canine TRPM8, icilin activation; read-out: % Inh @ 0.2
metric: inhibition at 0.2 µM (%)
Field: numeric (%). Do not append units.

Please review the entries below; each comes with its answer.
entry-smiles	inhibition at 0.2 µM [%]
CCCCN(c1sc2ccccc2c1C(C)=O)S(=O)(=O)c1ccc(C(=O)O)cc1	100
Cc1nc(O)nc(O)c1S(=O)(=O)N(Cc1ccc(F)c(C(F)(F)F)c1)c1sc2ccccc2c1C	99
CN(C)S(=O)(=O)N(CC(F)F)c1sc2ccccc2c1Br	67
Cc1c(N(Cc2c(F)c(F)c(F)c(F)c2F)S(=O)(=O)c2ccc(C(=O)O)cc2)sc2ccccc12	101
O=S(=O)(c1ccc(Br)cc1)N(CCC1CC1)c1cc2ccccc2s1	56

Form field: reported inhibition at 0.2 µM of O=C(O)c1ccc(S(=O)(=O)N(Cc2ccc(F)c(C(F)(F)F)c2)c2cc3ccccc3s2)c(F)c1
105

Can you handle Cc1c(N(CCCCC(F)(F)F)S(=O)(=O)CCC(=O)O)sc2ccccc12 next?
75

Another compound to look at: CS(=O)(=O)CS(=O)(=O)N(Cc1ccc(F)c(C(F)(F)F)c1)c1cc2ccccc2s1
67

What about this compound? CCCCN(c1sc2ccccc2c1C)S(=O)(=O)c1cccnc1N(C)C
102

Next up: O=S(=O)(CC(F)(F)F)N(Cc1ccc(F)c(C(F)(F)F)c1)c1sc2ccccc2c1CO
102

// query: Cc1c(N(Cc2ccc(F)c(C(F)(F)F)c2)S(=O)(=O)c2cnc(Cl)c(Cl)c2)sc2ccccc12
71

What do we get for COC(=O)c1cccc(S(=O)(=O)N(Cc2ccc(F)c(C(F)(F)F)c2)c2sc3cc(F)ccc3c2C)c1 ?
79

Try this compound next: Cc1c(N(Cc2ccc(F)c(C(F)(F)F)c2)S(=O)(=O)c2ccc(-c3csnn3)cc2)sc2ccccc12
96

Now consider Cc1cc(C(=O)O)sc1S(=O)(=O)N(Cc1ccc(F)c(C(F)(F)F)c1)c1sc2ccccc2c1C and answer again.
102

Now this one: COC(=O)[C@@H](C)CN(c1sc2ccccc2c1C)S(=O)(=O)c1ccccc1
98

Try this compound next: CCS(=O)(=O)N(CCOC(C)(C)C)c1sc2ccccc2c1Br
99

---

Entries and their measured % Inh @ 0.2 (μM) follow.
- target-desc: canine TRPM8 (Canis lupus familiaris)
- protocol-text: In Vitro Canine TRPM8 Functional Assay (Ca2+ fluorescence, icilin activation)
- Type: cell-based
- cond: compound at 0.2 μM; canine TRPM8, icilin activation
Please respond with the number in % and leave the unit unwritten.

Data request, read-out % Inh @ 0.2 (μM), for Cc1c(N(Cc2cccnc2)S(=O)(=O)c2ccc(C(=O)O)cc2)sc2ccccc12
98

Continue with N/C(=N\O)c1ccc(S(=O)(=O)N(Cc2ccc(F)c(C(F)(F)F)c2)c2cc3ccccc3s2)cc1
100

Proceed to Cc1c(N(CCCCC(F)(F)F)S(=O)(=O)c2ccc(C(=O)[O-])cc2)sc2ccccc12.[Na+]
104.78

Do the same for NS(=O)(=O)N(Cc1ccc(F)c(C(F)(F)F)c1)c1sc2ccccc2c1Br please
63

Likewise for CC(C)(O)c1c(N(CCCCC(F)(F)F)S(=O)(=O)c2ccc(C(=O)[O-])cc2)sc2ccccc12.[Na+] ?
101

What do you get for CCCCN(c1cc2ccccc2s1)S(=O)(=O)c1ccc(C(N)=NC(=O)CO)cc1 ?
88

Next record, please: O=S1NC(c2ccc(S(=O)(=O)N(CCC3CC3)c3cc4ccccc4s3)cc2)=NO1 (stereo not shown)
55

// same read-out, input: Cc1c(N(Cc2ccc(S(C)(=O)=O)cc2)S(=O)(=O)c2ccc(C(=O)O)cc2)sc2ccccc12
91

Next: Cc1c(N(Cc2ccc(F)c(C(F)(F)F)c2)S(=O)(=O)c2ccc3c(c2)NC(=O)CO3)sc2ccccc12
77

---

- target-desc: canine TRPM8 (Canis lupus familiaris, UniProt Q1A7N1)
- protocol-text: In Vitro Canine TRPM8 Functional Assay (Ca2+ fluorescence, icilin activation)
- Format: cell-based
- cond: HEK293 cells stably expressing canine TRPM8; icilin activation; eight-point dose-response; read-out: IC50
Hi! Could you tag entries with IC50 below 10 nM as fulfilled, and those at or above as not fulfilled? Much appreciated.

Some entries whose results are on file:
entry-smiles	class-name
Cc1nccc(-c2cccc(S(=O)(=O)N(CCCC(F)(F)F)c3sc4ccccc4c3C)c2)n1	not fulfilled
O=S(=O)(c1ccccc1)N(Cc1ccccn1)c1sc2ccccc2c1Br	not fulfilled
O=C(O)c1ccc(S(=O)(=O)N(CCCCC(F)(F)F)c2sc3ccccc3c2Cl)cc1	fulfilled
CC1=C(N(CCC2CC2)S(=O)(=O)c2ccccc2)S(=O)(=O)c2ccccc21	not fulfilled
O=S(=O)(CC(F)(F)F)N(Cc1ccc(F)c(C(F)(F)F)c1)c1cc2ccccc2s1	not fulfilled
CCS(=O)(=O)N(CCOC(C)(C)C)c1sc2ccccc2c1C	fulfilled
Nc1ccc(S(=O)(=O)N(Cc2ccc(F)c(C(F)(F)F)c2)c2sc3ccccc3c2Br)cc1	fulfilled
CC(C)(O)c1c(N(Cc2ccc(OC(F)(F)F)cc2)S(=O)(=O)c2ccc(C(=O)[O-])cc2)sc2ccccc12.[Na+]	fulfilled

Consider Cc1c(N(Cc2ccc(F)c(C(F)(F)F)c2)S(=O)(=O)c2ccc(C(=O)O)cc2F)sc2ccccc12 . Does its IC50 lie strictly below 10 nM?
fulfilled

Now give it for O=S(=O)(c1cccc(F)c1)N(Cc1ccc(F)c(F)c1)c1sc2ccccc2c1Br too.
fulfilled

Repeat for the following molecule: O=S(=O)(c1ccccc1)N(Cc1ccc(OC(F)(F)F)cc1)c1cc2ccccc2s1
not fulfilled

Now this one: O=S(=O)(c1ccccc1)N(CCN1CCOCC1)c1sc2ccccc2c1Cl
not fulfilled

Also COc1ccc(CN(c2cc3ccccc3s2)S(=O)(=O)c2ccccc2)cc1 ?
not fulfilled

Also need O=S(=O)(c1ccccc1)N(Cc1ccc(OC(F)(F)F)cc1)c1sc2ccccc2c1Cl , thanks.
not fulfilled

Also Cc1c(N(Cc2ccc(C(F)(F)F)c(F)c2)S(=O)(=O)c2cccs2)sc2ccccc12 ?
fulfilled

---

- target-desc: canine TRPM8 (Canis lupus familiaris, UniProt Q1A7N1)
- protocol-text: In Vitro Canine TRPM8 Functional Assay (Ca2+ fluorescence, icilin activation)
- Type: cell-based
- cond: HEK293 cells stably expressing canine TRPM8; icilin activation; eight-point dose-response; read-out: IC50
metric: IC50 (nM)
Respond with the bare value in nM.

Worked examples follow.
compound	target-desc	metric	experimental-result
COC(=O)c1cccc(S(=O)(=O)N(Cc2ccc(F)c(C(F)(F)F)c2)c2sc3ccccc3c2Br)c1 [Compound 193]	canine TRPM8 (Canis lupus familiaris, UniProt Q1A7N1)	IC50	14.5
COc1ccc(CN(c2sc3ccccc3c2Br)S(=O)(=O)c2ccccc2)cc1Br [Compound 165]	canine TRPM8 (Canis lupus familiaris, UniProt Q1A7N1)	IC50	3.7
CN(C)C1=C(N(CCC2CC2)S(=O)(=O)c2ccccc2)S(=O)(=O)c2ccccc21 [Compound 643]	canine TRPM8 (Canis lupus familiaris, UniProt Q1A7N1)	IC50	5
CC(C)(C)OCCN(c1sc2ccccc2c1Br)S(=O)(=O)c1ccccc1 [Compound 234]	canine TRPM8 (Canis lupus familiaris, UniProt Q1A7N1)	IC50	10
O=C(O)c1ccc(S(=O)(=O)N(CC2CCCCC2)c2sc3ccccc3c2Br)cc1 [Compound 279]	canine TRPM8 (Canis lupus familiaris, UniProt Q1A7N1)	IC50	1.3
CCN(c1sc2ccccc2c1Br)S(=O)(=O)c1ccccc1 [Compound 247]	canine TRPM8 (Canis lupus familiaris, UniProt Q1A7N1)	IC50	25.5
CC(C)(O)c1c(N(Cc2ccccc2)S(=O)(=O)c2ccc(Br)cc2)sc2ccccc12 [Compound 736]	canine TRPM8 (Canis lupus familiaris, UniProt Q1A7N1)	IC50	17.2

Turning now to a further record.
I am curious: what IC50 value has been reported for COC(=O)[C@H](C)CN(c1sc2ccccc2c1C)S(=O)(=O)c1ccccc1 [Compound 93] ?
11

---

- target-desc: UniProt Q1A7N1
- protocol-text: In Vitro Canine TRPM8 Functional Assay (Ca2+ fluorescence, icilin activation)
- Format: cell-based
- cond: compound at 0.5 μM; canine TRPM8, icilin activation; read-out: % Inh @ 0.5
Item-by-item account of inhibition at 0.5 µM
Give the value in % but do not write % after it.

Study these solved cases before continuing.
entry-smiles	inhibition at 0.5 µM / %
Cc1c(N(Cc2ccc(F)c(F)c2)S(=O)(=O)c2cccs2)sc2ccccc12	101
CS(=O)(=O)CCN(c1sc2ccccc2c1Cl)S(=O)(=O)c1ccccc1	88
CCCCN(c1sc2ccccc2c1Cl)S(=O)(=O)c1ccccc1	101
O=S(=O)(c1ccccc1)N(Cc1cccc(OC(F)(F)F)c1)c1sc2ccccc2c1Br	99

Find inhibition at 0.5 µM (UniProt Q1A7N1) for the entry CN(C)CCN(c1sc2ccccc2c1Br)S(=O)(=O)c1ccccc1
96

Likewise for CCCCN(c1sc2ccccc2c1Br)S(=O)(=O)c1ccccc1 ?
95

Also check COc1c(Cl)ccc2c(Cl)c(N(Cc3ccc(F)c(F)c3)S(=O)(=O)c3ccccc3)sc12
62

Origin of measurements: patent US9434711B2
